Tested on: COLO 205 colon
Experiment: NCI tumour cell line growth inhibition, 48 h
experimentalEndpoint: TGI

- compound: "CC1(C)CCc2c(c(N=Nc3ccc(F)cc3)c3ccccc3c2O)O1"
  TGI: "> 100 µM"
- compound: "Cn1c(=O)c2/c(n(C)c1=O)=N\\C=c1\\c(=O)n(C)c(=O)n(C)\\c1=N\\C=2"
  TGI: "> 100 µM"
- compound: "O=C(CCC(=O)C1CCC/C1=N/O)Nc1ccc(Cl)cc1 (stereo not given)"
  TGI: "> 100 µM"

Qu. Let me know recorded TGI for CC(=O)[CH-]C(=O)c1ccccc1.CC(=O)[CH-]C(=O)c1ccccc1.CC[O-].O=C1c2ccccc2C(=O)c2c1ccc(O)c2[O-].[Ti+4] , thanks.
Ans. > 100 µM

Qu. Let me know recorded TGI for NNC(=O)C(=O)N/N=C(\CCC(=O)Nc1ccc(Cl)cc1)Cc1nc2ccccc2s1 , thanks.
Ans. > 100 µM

Qu. Let me know recorded TGI for CC(=O)N/C(=C\c1ccc(Cc2nc3c([nH]2)C(=O)c2ccccc2C3=O)cc1)c1nc2c([nH]1)C(=O)c1ccccc1C2=O , thanks.
Ans. > 100 µM

Qu. Let me know recorded TGI for CCN(c1cc(C#CCN2CCOCC2)cc(C(=O)NCc2c(C)cc(C)[nH]c2=O)c1C)C1CCC(N(C)CCOC)CC1 (stereo not given) , thanks.
Ans. > 100 µM

Qu. Let me know recorded TGI for CCOC(=O)c1c(-c2cccc3ccccc23)c(C#N)c(=S)n(C2OC(COC(C)=O)C(OC(C)=O)C(OC(C)=O)C2OC(C)=O)c1C (stereo not given) , thanks.
Ans. > 100 µM

Qu. Let me know recorded TGI for CN(C)CCCNCc1cccc2ccccc12 , thanks.
Ans. > 100 µM

Qu. Let me know recorded TGI for CC(C)(C)CC(C)(C)c1ccc(O)c(C[N+](C)(C)[O-])c1 , thanks.
Ans. > 100 µM
